target: human wt P2X2 receptor (Homo sapiens, UniProt Q9UBL9); construct: expressed in transfected cells; experiment: ATP-induced calcium influx assay, human wt P2X2 receptor in 1321N1 astrocytoma cells; assay type: cell-based; conditions: wt hP2X2; ATP at EC80; read-out: IC50
Sequence (Q9UBL9 whole entry): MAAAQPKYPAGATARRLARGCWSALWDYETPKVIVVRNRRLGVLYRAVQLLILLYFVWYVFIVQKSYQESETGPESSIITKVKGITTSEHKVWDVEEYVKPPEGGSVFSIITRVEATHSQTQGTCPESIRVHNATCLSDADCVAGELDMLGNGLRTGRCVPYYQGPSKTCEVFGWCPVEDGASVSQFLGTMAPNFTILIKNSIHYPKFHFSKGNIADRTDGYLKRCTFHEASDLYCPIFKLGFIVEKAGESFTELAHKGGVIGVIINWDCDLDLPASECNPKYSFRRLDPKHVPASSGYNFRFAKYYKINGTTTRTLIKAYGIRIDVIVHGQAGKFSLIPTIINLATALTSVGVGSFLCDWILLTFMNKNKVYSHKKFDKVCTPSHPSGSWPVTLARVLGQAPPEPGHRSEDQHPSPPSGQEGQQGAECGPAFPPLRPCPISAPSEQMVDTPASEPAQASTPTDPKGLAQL
quantity: IC50
Just the number plus its unit, please.

Form field: reported IC50 of Nc1c(S(=O)(=O)O)cc(Nc2ccc(Nc3nc(Cl)nc(Nc4ccccc4S(=O)(=O)O)n3)c(S(=O)(=O)O)c2)c2c1C(=O)c1ccccc1C2=O [Cibacron Blue]
13.1 µM

###

target: wild-type (wt) human (h) P2X4 receptor (Homo sapiens, UniProt Q99571); experiment: Two-electrode voltage clamp (TEVC), wt hP2X4 in Xenopus laevis oocytes; conditions: TEVC at -60 mV
Sequence (Q99571 whole entry): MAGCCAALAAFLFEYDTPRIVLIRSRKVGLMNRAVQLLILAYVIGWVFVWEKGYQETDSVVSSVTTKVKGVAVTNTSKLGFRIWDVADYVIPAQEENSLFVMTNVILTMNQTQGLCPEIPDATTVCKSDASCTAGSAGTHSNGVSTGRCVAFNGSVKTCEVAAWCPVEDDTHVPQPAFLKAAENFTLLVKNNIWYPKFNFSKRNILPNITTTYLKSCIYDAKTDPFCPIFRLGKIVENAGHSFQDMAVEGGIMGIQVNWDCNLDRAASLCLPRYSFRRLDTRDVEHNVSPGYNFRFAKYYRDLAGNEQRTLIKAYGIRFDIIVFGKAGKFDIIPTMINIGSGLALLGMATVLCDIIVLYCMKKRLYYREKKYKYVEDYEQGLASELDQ
pEC50: −log10 of the molar value.
quantity: pEC50

Entry under review: Nc1ncnc2c1ncn2[C@@H]1O[C@H](COP(=O)(O)OP(=O)(O)OP(=O)(O)O)[C@@H](O)[C@H]1O [ATP, Adenosine 5′-triphosphate] . Reported pEC50?
~5.00
